- protocol_text: Trial 000015 Part 1: pharmacokinetics after single intranasal administration
- stated_conditions: female, human, plasma, inhaled or intranasal, 100 ug, Cmax Geom. mean (% CV), single i.n. dose 100 μg, N = 6
*1 amine or outer side, *2 acyl side, *3 side chain or, on linkers, in order; H or OH if unused. Where a SMILES comes first, the peptide text is derived from it. Bridges are numbered along the chain shown (N, C = ends). [ ]: non-standard residue; d: D form. N(4-F-Bzl)Gly = O=C(O)CNCc1ccc(F)cc1; X1 = O=C(CCC[*:2])[*:1]
quantity_name: Cmax (ng/mL)
All answers are understood in ng/mL, so give the number only.

## Task Sample CC[C@H](C)[C@@H]1NC(=O)[C@H](Cc2ccc(O)cc2)NC(=O)CCCSC[C@@H](C(=O)N(CC(=O)N[C@@H](CC(C)C)C(=O)NCC(N)=O)Cc2ccc(F)cc2)NC(=O)[C@H](CC(N)=O)NC(=O)[C@H](CCC(N)=O)NC1=O [merotocin] (YIQNC[N(4-F-Bzl)Gly]LG-NH2; linker N-5 via X1) — what was its Cmax?
## Result 0.0379

----------
- protocol_text: Trial 000015 Part 2: pharmacokinetics after multiple intranasal administrations
- Assay type: in vivo, human
- stated_conditions: female, human, plasma, other: intranasal, multiple i.n. doses, all dose groups; read-out: t1/2
*1 amine or outer side, *2 acyl side, *3 side chain or, on linkers, in order; H or OH if unused. Where a SMILES comes first, the peptide text is derived from it. Bridges are numbered along the chain shown (N, C = ends). [ ]: non-standard residue; d: D form. N(4-F-Bzl)Gly = O=C(O)CNCc1ccc(F)cc1; X1 = O=C(CCC[*:2])[*:1]
quantity_name: half-life

## Task Any idea what its half-life is? The compound is CC[C@H](C)[C@@H]1NC(=O)[C@H](Cc2ccc(O)cc2)NC(=O)CCCSC[C@@H](C(=O)N(CC(=O)N[C@@H](CC(C)C)C(=O)NCC(N)=O)Cc2ccc(F)cc2)NC(=O)[C@H](CC(N)=O)NC(=O)[C@H](CCC(N)=O)NC1=O [merotocin] (YIQNC[N(4-F-Bzl)Gly]LG-NH2; linker N-5 via X1)
## Result 25 to 35 min

----------
- protocol_text: Trial 000015 Part 2: pharmacokinetics after multiple intranasal administrations
- Type: in vivo, human
- stated_conditions: female, human, plasma, other: intranasal, 400 ug, multiple i.n. doses every 3 hours, 400 μg, Dose No. 16; read-out: t1/2 Harmonic mean (converted)
*1 amine or outer side, *2 acyl side, *3 side chain or, on linkers, in order; H or OH if unused. Where a SMILES comes first, the peptide text is derived from it. Bridges are numbered along the chain shown (N, C = ends). [ ]: non-standard residue; d: D form. N(4-F-Bzl)Gly = O=C(O)CNCc1ccc(F)cc1; X1 = O=C(CCC[*:2])[*:1]
quantity_name: half-life
Number first, unit second.

## Task # lookup: half-life of CC[C@H](C)[C@@H]1NC(=O)[C@H](Cc2ccc(O)cc2)NC(=O)CCCSC[C@@H](C(=O)N(CC(=O)N[C@@H](CC(C)C)C(=O)NCC(N)=O)Cc2ccc(F)cc2)NC(=O)[C@H](CC(N)=O)NC(=O)[C@H](CCC(N)=O)NC1=O [merotocin] (YIQNC[N(4-F-Bzl)Gly]LG-NH2; linker N-5 via X1)
## Result 33.6 min

----------
- protocol_text: Trial 000015 Part 2: pharmacokinetics after multiple intranasal administrations
- Type: in vivo, human
- stated_conditions: female, human, plasma, inhaled or intranasal, 400 ug, multiple i.n. doses every 3 hours, 400 μg, Dose No. 2; read-out: tmax Mean (SD)
- Source text: The trial was divided into three parts: Part 2. Ascending multiple i.n. doses.
*1 amine or outer side, *2 acyl side, *3 side chain or, on linkers, in order; H or OH if unused. Where a SMILES comes first, the peptide text is derived from it. Bridges are numbered along the chain shown (N, C = ends). [ ]: non-standard residue; d: D form. N(4-F-Bzl)Gly = O=C(O)CNCc1ccc(F)cc1; X1 = O=C(CCC[*:2])[*:1]
quantity_name: Tmax (min)
# output: bare number, implied unit min

## Task What does the record list as Tmax for CC[C@H](C)[C@@H]1NC(=O)[C@H](Cc2ccc(O)cc2)NC(=O)CCCSC[C@@H](C(=O)N(CC(=O)N[C@@H](CC(C)C)C(=O)NCC(N)=O)Cc2ccc(F)cc2)NC(=O)[C@H](CC(N)=O)NC(=O)[C@H](CCC(N)=O)NC1=O [merotocin] (YIQNC[N(4-F-Bzl)Gly]LG-NH2; linker N-5 via X1) ?
## Result 9.6

----------
- protocol_text: Trial 000015 Part 2: pharmacokinetics after multiple intranasal administrations
- Type: in vivo, human
- stated_conditions: female, human, plasma, inhaled or intranasal, 200 ug, multiple i.n. doses every 3 hours, 200 μg, Dose No. 1; read-out: Cmax Median
*1 amine or outer side, *2 acyl side, *3 side chain or, on linkers, in order; H or OH if unused. Where a SMILES comes first, the peptide text is derived from it. Bridges are numbered along the chain shown (N, C = ends). [ ]: non-standard residue; d: D form. N(4-F-Bzl)Gly = O=C(O)CNCc1ccc(F)cc1; X1 = O=C(CCC[*:2])[*:1]
quantity_name: Cmax (ng/mL)
The response must be a number in ng/mL with no trailing unit.

## Task Quick one: Cmax of CC[C@H](C)[C@@H]1NC(=O)[C@H](Cc2ccc(O)cc2)NC(=O)CCCSC[C@@H](C(=O)N(CC(=O)N[C@@H](CC(C)C)C(=O)NCC(N)=O)Cc2ccc(F)cc2)NC(=O)[C@H](CC(N)=O)NC(=O)[C@H](CCC(N)=O)NC1=O [merotocin] (YIQNC[N(4-F-Bzl)Gly]LG-NH2; linker N-5 via X1) ?
## Result 0.125

----------
- protocol_text: Trial 000015 Part 2: pharmacokinetics after multiple intranasal administrations
- Assay type: in vivo, human
- stated_conditions: female, human, plasma, other: intranasal, multiple i.n. doses, all dose groups; read-out: tmax
*1 amine or outer side, *2 acyl side, *3 side chain or, on linkers, in order; H or OH if unused. Where a SMILES comes first, the peptide text is derived from it. Bridges are numbered along the chain shown (N, C = ends). [ ]: non-standard residue; d: D form. N(4-F-Bzl)Gly = O=C(O)CNCc1ccc(F)cc1; X1 = O=C(CCC[*:2])[*:1]
quantity_name: Tmax

## Task Entry CC[C@H](C)[C@@H]1NC(=O)[C@H](Cc2ccc(O)cc2)NC(=O)CCCSC[C@@H](C(=O)N(CC(=O)N[C@@H](CC(C)C)C(=O)NCC(N)=O)Cc2ccc(F)cc2)NC(=O)[C@H](CC(N)=O)NC(=O)[C@H](CCC(N)=O)NC1=O [merotocin] (YIQNC[N(4-F-Bzl)Gly]LG-NH2; linker N-5 via X1) : reported Tmax = ?
## Result 12 to 15 min

----------
- protocol_text: Trial 000015 Part 2: pharmacokinetics after multiple intranasal administrations
- Type: in vivo, human
- stated_conditions: female, human, plasma, inhaled or intranasal, 200 ug, multiple i.n. doses every 3 hours, 200 μg, Dose No. 16; read-out: t1/2 Harmonic mean (converted)
*1 amine or outer side, *2 acyl side, *3 side chain or, on linkers, in order; H or OH if unused. Where a SMILES comes first, the peptide text is derived from it. Bridges are numbered along the chain shown (N, C = ends). [ ]: non-standard residue; d: D form. N(4-F-Bzl)Gly = O=C(O)CNCc1ccc(F)cc1; X1 = O=C(CCC[*:2])[*:1]
quantity_name: half-life (min)
API: value field is a number in min; no unit string.

## Task Any idea what half-life was measured for CC[C@H](C)[C@@H]1NC(=O)[C@H](Cc2ccc(O)cc2)NC(=O)CCCSC[C@@H](C(=O)N(CC(=O)N[C@@H](CC(C)C)C(=O)NCC(N)=O)Cc2ccc(F)cc2)NC(=O)[C@H](CC(N)=O)NC(=O)[C@H](CCC(N)=O)NC1=O [merotocin] (YIQNC[N(4-F-Bzl)Gly]LG-NH2; linker N-5 via X1) ?
## Result 30.6

----------
- protocol_text: Trial 000015 Part 3: pharmacokinetics, single intranasal and single intravenous cross-over
- stated_conditions: female, human, plasma, other: intranasal, 400 μg, bioavailability (range), 400 μg i.n. vs 20 μg i.v.
*1 amine or outer side, *2 acyl side, *3 side chain or, on linkers, in order; H or OH if unused. Where a SMILES comes first, the peptide text is derived from it. Bridges are numbered along the chain shown (N, C = ends). [ ]: non-standard residue; d: D form. N(4-F-Bzl)Gly = O=C(O)CNCc1ccc(F)cc1; X1 = O=C(CCC[*:2])[*:1]
quantity_name: bioavailability

## Task Name the reported bioavailability value associated with the compound CC[C@H](C)[C@@H]1NC(=O)[C@H](Cc2ccc(O)cc2)NC(=O)CCCSC[C@@H](C(=O)N(CC(=O)N[C@@H](CC(C)C)C(=O)NCC(N)=O)Cc2ccc(F)cc2)NC(=O)[C@H](CC(N)=O)NC(=O)[C@H](CCC(N)=O)NC1=O [merotocin] (YIQNC[N(4-F-Bzl)Gly]LG-NH2; linker N-5 via X1)
## Result 2.2 to 6.2%
